All values here come from patent US20260144882A1.

Quick reference for OD value among some binders
Molecular target: T1, human Nectin-4 extracellular antigen hNectin-4-His (human, UniProt Q96NY8 32-349)
T1 construct: C-terminal 8xHis tag included
T1 sequence: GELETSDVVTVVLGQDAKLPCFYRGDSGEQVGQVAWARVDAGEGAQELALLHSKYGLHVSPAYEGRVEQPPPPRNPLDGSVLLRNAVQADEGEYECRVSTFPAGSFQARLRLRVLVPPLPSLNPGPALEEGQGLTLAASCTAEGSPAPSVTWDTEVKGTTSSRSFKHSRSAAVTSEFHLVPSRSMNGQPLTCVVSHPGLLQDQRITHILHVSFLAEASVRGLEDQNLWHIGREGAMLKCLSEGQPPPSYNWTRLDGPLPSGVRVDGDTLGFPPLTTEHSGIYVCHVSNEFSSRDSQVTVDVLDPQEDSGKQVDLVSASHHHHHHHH
Test: ELISA, phage scFv supernatant 1:50
Quick reminder: number only, in OD, skip the unit.

In the examples that follow, each entry is paired with its recorded OD value.
* 10F4-2E4 scFv (scFv, V domains shown, phage clone supernatant) VH: EVQLVESGGGLVQPGGSLRLSCAASGYTFDSYWMSWVRQAPGKGLEWVSAIDGTDSVAYYADSVKGRFTISRDNSKNTLYLQMNSLRAEDTAVYYCAREYSDVVDYVSVRTPLDYWGQGTLVTVSS VL: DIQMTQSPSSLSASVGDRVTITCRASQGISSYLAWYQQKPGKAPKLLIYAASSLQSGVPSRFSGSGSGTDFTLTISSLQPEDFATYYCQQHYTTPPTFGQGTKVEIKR | 1.43
* 1F3-2A11 scFv (scFv, V domains shown, phage clone supernatant) VH: EVQLVESGGGLVQPGGSLRLSCAASGDNFYTFYMSWVRQAPGKGLEWVSGIKPTGSYINYADSVKGRFTISRDNSKNTLYLQMNSLRAEDTAVYYCARAELLAFDVYTASDYWGQGTLVTVSS VL: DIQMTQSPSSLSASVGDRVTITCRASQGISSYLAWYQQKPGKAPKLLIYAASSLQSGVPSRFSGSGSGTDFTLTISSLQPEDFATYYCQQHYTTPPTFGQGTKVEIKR | 1.52

Note: attention shifts to another entry.
Qu. // returns reported OD value for input 10F4-1G7 scFv (scFv, V domains shown, phage clone supernatant) VH: EVQLVESGGGLVQPGGSLRLSCAASGYNFGDYDMSWVRQAPGKGLEWVSSIIGHGDTKFYADSVKGRFTISRDNSKNTLYLQMNSLRAEDTAVYYCAREYSDVVDYVSVRTPLDYWGQGTLVTVSS VL: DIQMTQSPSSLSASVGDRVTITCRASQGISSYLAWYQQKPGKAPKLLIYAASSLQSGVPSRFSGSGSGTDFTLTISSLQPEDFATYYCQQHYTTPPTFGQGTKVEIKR
Ans. 1.54
